Tested on: Toxoplasma gondii
Test: Inhibition of Toxoplasma gondii cell growth
Format: functional, organism-based
Some molecules, each annotated with its measured pIC50.
As a rule, pIC50 stands for the negative log10 of the concentration, concentration in M.

>>> print(df.to_string())
                            compound_smiles  attribute_measured  assay_value
0   Cc1c(CCc2cccc3ccccc23)cnc2nc(N)nc(N)c12               pIC50         7.00
1      COc1ccc(C)cc1NCc1cnc2nc(N)nc(N)c2c1C               pIC50         7.30
2    COc1cc(NCc2cnc3nc(N)nc(N)c3n2)cc(OC)c1               pIC50         6.00
3   Cc1c(CNc2cccc3ccccc23)cnc2nc(N)nc(N)c12               pIC50         7.92
4  COc1ccc(OC)c(N(C)Cc2cnc3nc(N)nc(N)c3c2C)c1               pIC50         6.70

Inquiry: Record lookup: for Toxoplasma gondii, what pIC50 belongs to COc1ccc(OC)c(N(C)Cc2cnc3nc(N)nc(N)c3n2)c1 ?
Reply text: 5.80

Inquiry: Record lookup: for Toxoplasma gondii, what pIC50 belongs to COc1ccc(C)c(NCc2cnc3nc(N)nc(N)c3n2)c1 ?
Reply text: 6.00

Inquiry: Record lookup: for Toxoplasma gondii, what pIC50 belongs to Nc1nc(N)c2cc(CNc3ccc(Cl)cc3)ccc2n1 ?
Reply text: 8.00

Inquiry: Record lookup: for Toxoplasma gondii, what pIC50 belongs to Cc1c(CSc2cccc3ccccc23)cnc2nc(N)nc(N)c12 ?
Reply text: 7.40

Inquiry: Record lookup: for Toxoplasma gondii, what pIC50 belongs to COc1cccc(C)c1NCc1cnc2nc(N)nc(N)c2n1 ?
Reply text: 5.30
